Data provenance: PubChem BioAssay AID1159580

- Protocol summary: chemical genetic growth profiling, strain panel (AID 1159580);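 note: tested at 20 µM; growth read once vehicle control cultures reached saturation at 30 °C; 1 = growth at the plate median or of vehicle wells; lower values mean less growth of the strain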
- Condition info: S. cerevisiae deletion strains, growth OD, locus YLL001W, strain dnm1, active compounds read low
Out of some 5,500 compounds screened, about 2,000 (36%) were called active. Another 18% or so got no clear call; they are omitted. The list shows a part of the results. *1 amine or outer side, *2 acyl side, *3 side chain or, on linkers, in order; H or OH if unused. Where a SMILES comes first, the peptide text is derived from it. Bridges are numbered along the chain shown (N, C = ends). [ ]: non-standard residue; d: D form. The star is where a group is joined. ξ: configuration not given here. ΔAla(E,3-NHCONH2) = NC(=O)N/C=C(/N)C(=O)O; X2 = NC1=NCCC(C(N[*:1])C(=O)[*:2])N1; ξβ3hOrn = NCCCC(N)CC(=O)*; Dap = NC[CH](N)C(=O)O

Compound	normalized growth
CCOc1ccc(C(=O)c2ccc(OC)c(O)c2O)cc1	0.981
CCOc1ccc(C(=O)c2cc(O)c(OC)c(OC)c2O)cc1	0.989
CC1(C)S[C@@H]2[C@H](NC(=O)Cc3ccccc3)C(=O)N2[C@H]1C(=O)O	1.03
CCCCCCCCCCCCCCCCCCOCC(O)CO (stereo not given)	0.997
CC(=O)OC[C@H]1O[C@@H](Oc2cc(OC(C)=O)c3c(=O)cc(-c4ccc(OC(C)=O)cc4)oc3c2)[C@H](OC(C)=O)[C@@H](OC(C)=O)[C@@H]1OC(C)=O	0.947
NCCCC(N)CC(=O)NCC1NC(=O)C(CO)NC(=O)C(N)CNC(=O)C(C2CCN=C(N)N2)NC(=O)/C(=C\NC(N)=O)NC1=O (stereo not drawn) (H-[Dap]S[Dap](ξβ3hOrn)[ΔAla(E,3-NHCONH2)][X2]; lactam 1-C; configuration not given here)	1.04
O=C(CCc1ccc(O)cc1)c1c(O)cc(O)cc1O[C@@H]1O[C@H](CO)[C@@H](O)[C@H](O)[C@H]1O	1.01
CCOc1cccc(C(=O)c2ccc(O)c(O)c2O)c1	0.945
COc1ccc(C(=O)c2ccccc2)c(O)c1O	0.974
CC1=C(O)C(=O)C=C2C1=CC=C1[C@@]2(C)CC[C@@]2(C)[C@@H]3C[C@](C)(C(=O)O)CC[C@]3(C)CC[C@]12C	0.617
CC(=O)Oc1cc2c(c(C)c1OC(C)=O)CC1OC13C2(C)CCC1(C)C2CC(C)(C(=O)O)CCC2(C)CCC13C (stereo not given)	1.03
Cc1onc(-c2ccccc2Cl)c1C(=O)N[C@@H]1C(=O)N2[C@@H]1SC(C)(C)[C@@H]2C(=O)O	1.02
O=C1c2ccccc2C(=O)C1c1ccccc1	1
O=c1c(O)c(-c2ccc(O)c(O)c2)oc2cc(O)ccc12	0.994
COC1(C)CCC2OC2(C)CCC2C1CC2(C)C (stereo not given)	0.989
COc1ccc(C2C(=O)c3ccccc3C2=O)cc1	0.997
O=C(O)[C@H](O)[C@@](O)(Cc1ccc(O)cc1)C(=O)O	1.03
O=c1oc2c(O)c(O)cc3c(=O)oc4c(O)c(O)cc1c4c23	0.747
Cc1onc(-c2c(Cl)cccc2Cl)c1C(=O)N[C@@H]1C(=O)N2[C@@H]1SC(C)(C)[C@@H]2C(=O)O	0.962
CC(=O)OCC1=C(C(=O)O)N2C(=O)[C@@H](NC(=O)CCCC(N)C(=O)O)C2SC1 (stereo not given in full)	0.973
